Data credit: ChEMBL document CHEMBL3244382

Tested on: Mus musculus
Assay: Toxicity in PS mouse allografted with mouse P388 cells assessed as change in body weight at 25 ug/kg relative to control
Type: organism-based
Conditions: in vivo, 0.025 mg/kg
For each entry below, report its Activity value.
Response body: numeric value in g, unit text excluded.

-- ask Param readout= Activity; system= Mus musculus; entry= COc1cc2cc(c1Cl)N(C)C(=O)C[C@H](OC(=O)[C@H](C)N(C)C(=O)C(C)C)[C@]1(C)O[C@H]1[C@H](C)[C@@H]1C[C@@](O)(NC(=O)O1)[C@H](OC)/C=C/C=C(\C)C2 ; returns value.
-- reply 0.1

-- ask Param readout= Activity; system= Mus musculus; entry= COc1cc2cc(c1Cl)N(C)C(=O)C[C@H](OC(=O)C(C)C)[C@]1(C)O[C@H]1[C@H](C)[C@@H]1C[C@@](O)(NC(=O)O1)[C@H](OC)/C=C/C=C(\C)C2OC(C)=O (stereo partly drawn) ; returns value.
-- reply -0.9

-- ask Param readout= Activity; system= Mus musculus; entry= COc1cc2cc(c1Cl)NC(=O)/C=C/[C@]1(C)O[C@H]1[C@H](C)[C@@H]1C[C@@](O)(NC(=O)O1)[C@H](OC)/C=C/C=C(\C)C2 ; returns value.
-- reply -0.5
